# MEASUREMENT DESCRIPTION: yeast display, Sf9 membrane polyspecificity reagent, FACS + sequencing; frameworks hold sequencing errors
QUANTITY NAME: polyreactivity (PSR sort gate)

{"columns": ["SEQUENCE CHAIN", "OBSERVED"],
 "data": [
  ["QVQLHESGGGLLQAGGGLRLSCAASGSISSTGFMGWYRQAPGKEREPVAAIAPGTTTYYADSVKGRFTISRDNAKNTVYLQMNSLRPEDTAVYYCAVFTDNRVAFLYWGQGTQVTVSS", "low polyreactivity"],
  ["QVQHVESGGGLVQAGRSLPLSCAASGSIFWDNALGWYRQATGKEMVLVAAITSCGDTTYYADSVKGRFTISRDNSKNTVYLQMNSLKPEDTAVYYCATDSNWYWGFNYWGQGTQVTVSS", "low polyreactivity"],
  ["QVQLVESGGGLVQAGGSLRLSCAASGFTFWYYAMGWYRQAPGKERELVAAISRSGTSTYYADSVKGRFTISRDNAKNTVFLQMNCLKPEDSAVYYCNVLRVNSITYLMDYWVQGTQVTVSS", "high polyreactivity"],
  ["QVQLVESAGGLVQAGGSLRLICAASGLIFYRNTMGWYRQAPGKERELVAAISVSGGSTNYADSVKGRFTISRDNAKNTVYLQMNILKPEDTAVYFCATRVNYGYYYWGQGTQVTVSS", "high polyreactivity"],
  ["QVQLVESGGGLVQAGGSLRLSCAASGIIFGRYAMGWYRQAPGKERELVAAITSGGSTSYADSVKGRFTISRDNAKNTVYLQMNSLKPEDTAVYYCAVVFVWGWPGYYWGQGTQVTVSS", "high polyreactivity"],
  ["QVQLVESGGGLVQAGGSLRLSCAASGSTFLDYAMGWYRQAPGNERELVAAISPDDSSTYYADSVKARFTISRDKAKNTVSLHMTSLKPEDTAVYYFAADDRDWVNYDYWGQGTQVTVSS", "low polyreactivity"],
  ["QVQLVESGGGLVQAGGSLRLSCPASGRIFDYYAMGRYRQAPGKERELVARITSGGTTNYADSVKGRFTISRDNAKNTVFLQMNSLKPEDTAVYYCNAQDYCDPLQMDYWGQGTQVTVSS", "low polyreactivity"],
  ["QVQLVESGGGIVQAGGSLRLTCAASGITFYKYDMGWYRQAPGKDRELVAAISFRGGNTNYADSVKGRFTISRDNAKNTVYLQMNILKPEDTAVYYCAAYSYTWFYEYGYWGQGTQVTVSS", "high polyreactivity"],
  ["QLQLVESGGGLVQAGGSLRLSCAASGRTFDDYAMGWYRQAPGKERELVAAISGSAGSTYYADSVKGRFTISRDNAKNTVYLQMNSLKPEDTAVYYCARGYGTYPLYYQYLAYYYWGQGTQVTVSS", "low polyreactivity"],
  ["QVQLVESGGGLVQAGGSLRFSCAASGFIFIFYAMGWYRQAPGKERELVAGISWSSSSTYYADSVKRRFSISRDNAKNTVYLQMNRLKPEDTAVYYCAKDGLSVSGEYDYWGQGTQVTVSS", "low polyreactivity"],
  ["QVQLVESGGGLVQAGGSLRLSSAASGSTIGYYAMRWYRQAPGKERELVAAISWSGGSTYYADSVKGRFTISRDNAKNTVYLQMNSLKPEDTAVYYCAADTYPDYYLVEYYYWGQGTQVTVSS", "low polyreactivity"],
  ["QVQLVESGGGLVQAGGSLRLSCAASGRIFDYYAMGWYRQAPGNERELVAAINSGGSTYYADSVKGRFTISRDNAKNTVSLQMNSLKPEDTAVYYCNALRKSLRGGDYWGQGTQVTVSS", "high polyreactivity"],
  ["QVQLVESGGGLVQAGGSLRLSCAASGFTFVLYAMGWYRQAPGKERELVATITSSGRTNYADSVKGRFTISRDNAKNTVYLQMNSLKPEDTAVYYCAARGGRRYDYWGQGTQVTVSS", "high polyreactivity"],
  ["QVQLVESGGGLVQAGGSLRLSCAASGSTFTSYAKGCYRQAPGKERELVAAISRRGTSTYYADSVKGRFTISRDNAKHTVYLQMNSLKPEDTAVYYCAADGYYCEYYYWGQGTQVTVSS", "high polyreactivity"],
  ["QVQLVESGGGLVQAGGSLRLSCAASGSTLVTNSMGWYRKAPGKERELVAAITFSGGTTYYADSVKGRFTISLDNAKNTVYLQMNSLKPEDTAVYYCAAEIWLEYVGYDYCGQGTQVTVSS", "high polyreactivity"],
  ["QVQLVESGGGLVQAGGSLRLSCAASGLIFTVNAMGWYRQAPGKERELVAAISQSGGSTYYADSVKGRFTISRDNAKNTVYLQMNSLKPEDTAVYYCARGSWRHFRLYGFDYWGQGTQLTVSS", "low polyreactivity"],
  ["QVQLVESGGGLVQAGGSLRLSCAASGFTFASNAMGWYRQAPGKERELVAAITWGTGTTSYADSVKGRFTISRDYAKNTVYLQMNSLKPEDTAVYYCNARVGPELHDYWGQGTQVTVSS", "low polyreactivity"],
  ["QVQLVESGGGLVQAGGSLRLSCAASGITFRKYFMGWYRQAPGKERELVATITRNGGTTNYADSVKGRFTISRDNAKNTVYLQMNSLKPEDTAVYYCAAPGPGYIYLGFDYWGQGTQVTVSS", "high polyreactivity"],
  ["QVQLVESGGGLVQAGGSLRISCAASGSTYYTNTMGWYRQAPGKERELVADINGSGGSTYYADSVKGRITISRDNAKNTVYLQMNSLKPEDTAVYYCAAGSLQVAIRYDYWGQGTQVTVSS", "low polyreactivity"],
  ["QVQLVESGGGLVQAGGSLRLSCAASGRIFQGYAMGWYRQAPGKERELVAAIRTGGSTNYADSVKGRFTISRDNAKNTVYLQMNSLKPEDTAVYYCNAVGQLYFYFPRGDYWGQGTQVTVSS", "low polyreactivity"],
  ["QVQLVESGGGLVQAGGSLRLSCDASGRIFRANAMGWYRQAPGKERELVASISRGGSTNYADSVKGRFTISRDNAKNTVYLQMNRLKPEDTAVYYCAARLGFYPYGYTSWYTVYYWGQGTQVTVSS", "low polyreactivity"]
]}

###

# MEASUREMENT DESCRIPTION: yeast display, Sf9 membrane polyspecificity reagent, FACS + sequencing; frameworks hold sequencing errors

{"columns": ["SEQUENCE CHAIN", "polyreactivity (PSR sort gate)"],
 "data": [
  ["QVQLVESGGGLVQAGGSLRLSCAACGRIFNRYAMGWYRQAPGKERELVAAIRYSGGRTYYADSVKGRFTISRDNAKNTVYLQMNSLKPEDTAVYYCAADGQWYYAPFRGGDYENDYWGQGTQVTVSS", "low polyreactivity"],
  ["QVQLVESGGGLVQAGGSLRLSCAASGRIFYRYAMGWYRQAPGKERELVAAINDGGSTYYADSVKGRFTISRDNAKNTVYLQMNSLKAEDTAVYYCNVVNEHQSDFVVPFDYNHWGQGTQVTVSS", "low polyreactivity"],
  ["QVQLVESGGCLVQAGGSLRLSCSSSGFIFFYNMGWYRQAPGKERDLVADISTGGSTNYADSVKGRFTISRDNAKNTVYLQMNSLKQEDTAVYYCAAVYYNVYQYEPWYDYWGQGTQVTVSS", "low polyreactivity"],
  ["QVQLVESGGCLVQAGGSLRLSCAASGRIFFYYTLGWYRQAPGKERELVAAINSTGSTNYADSVKGRFTISRDNAKNTVYLQMKSLKPEDTAVYYCNAGTRYIFLYPPFLGAAFDYWGQGTQVTVSS", "low polyreactivity"],
  ["QVQLVESGGGLVQAGGSLRLSCAASGFIFGGYAMGWYRQAPGKERELVAAISRSGGSTYYADSVKGRFTISRDNEKNTVYLQMNSVKPEDTAVYYCNAVPRRQGFNYWGQCTQVTVSS", "high polyreactivity"],
  ["QVQLVESGGRLVQAGGSLRLSCAASGSTFRYYAMGWYRQAPGKERELVAAITSSGTSTYYADSVKGRFTISRDNAKNTVYLQMNSLKPEDTAVYYCAAPPVYKWVSSRYDYWGQGTQVTVSS", "low polyreactivity"],
  ["QVQLVESGGGLVQAGGSLRLSCAASGRTFYSYVMGWSRQAPGKERELVAAISQSGGNTYYADSVKGRFTISRDNAKNTVYLQMNSLKPEDTAVYYCAAGGVLTSWFGQEYEYYYWGQGTQVTVSS", "high polyreactivity"],
  ["QVQLVESGGGLVQAGGSLRLSCAASGFIFYSNAMGWYRQAPGKERELVAAIRSTGSTSYADSVKGRFTISRDNAKNTVYLQMNSLKPEDTAVYYCAKVRYWRGYDYWGQGTQVTVSS", "high polyreactivity"],
  ["QVQLVDSGGGLVQAGGSLRLSCAASGSIFWIYSMGWYRQAPGKERELVATISRGGSTYADSVKGRFTISRDNAKNTVYLQMNSLKPEDTPVYYCAARAFAGNQQAYYYWGQGTQVTVSS", "high polyreactivity"],
  ["QVQLVESGRGLVQAGGSLRISSAASGFIYRYYAMGWYRQAPGKERELVAAINTGGTTYYADSVKGRFTISRDNAKNTVYFQMNSLKPEDTAVYYCAKRWPRSSLGDYWGQGTQVTVSS", "high polyreactivity"],
  ["QVQLVESGGGLVQAGGSLRISCAASGSTFGSYTMGWYRQAPGKERELVAAIRGGGSTYYADSVKGRFTISRDNAKNTVYLQMNSLKPEDTAVYYCAALSPRRYNPRYGFDYCGQGTQVTVSS", "high polyreactivity"]
]}
